# Target desc: CYP2D6 (Homo sapiens, UniProt P10635)
# Construct: Pooled of Human Liver Microsomes was purchased from Xenotech, LLC; tissue Xenotech, LLC; host or cells: pooled human liver microsomes
# Sequence (P10635 whole entry): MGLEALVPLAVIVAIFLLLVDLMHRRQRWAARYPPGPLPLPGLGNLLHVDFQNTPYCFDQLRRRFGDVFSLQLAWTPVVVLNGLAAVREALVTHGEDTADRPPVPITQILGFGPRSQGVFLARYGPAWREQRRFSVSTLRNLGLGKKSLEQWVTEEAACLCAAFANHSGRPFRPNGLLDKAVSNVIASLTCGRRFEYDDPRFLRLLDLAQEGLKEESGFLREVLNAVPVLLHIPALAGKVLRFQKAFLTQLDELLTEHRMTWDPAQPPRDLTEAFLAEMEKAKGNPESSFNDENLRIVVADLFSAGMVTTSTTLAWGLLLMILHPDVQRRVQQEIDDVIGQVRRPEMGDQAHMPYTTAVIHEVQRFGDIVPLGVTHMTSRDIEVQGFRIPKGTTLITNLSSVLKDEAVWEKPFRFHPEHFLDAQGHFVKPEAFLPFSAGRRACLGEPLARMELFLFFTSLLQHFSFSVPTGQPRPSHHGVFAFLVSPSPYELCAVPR
# Protocol notes: Screening test of the rate of CYP2D6 contribution in human liver microsomal metabolism
# Type: in vitro ADME
# Conditions: 1 mg/mL human liver microsomes, 1 μM test substance, with/without quinidine 4 μM, 37° C.
Outcome measure: Test Example 4: Rate of CYP2D6 Contribution (%)

a = COCCOc1cc(CC2CCN(CCc3ccc4c(c3)C(=O)CC4)CC2)ccc1C
b = COCCOc1cc(Cl)cc(CC2CCN(CCc3ccc4c(c3)C(=O)CC4)CC2)c1
c = COCCOc1cc(CC2CCN(CCc3ccc4c(c3)C(=O)CCO4)CC2)ccc1C
// rank above by Test Example 4: Rate of CYP2D6 Contribution: first = highest number # answer = labels listed in requested order
c, b, a

###

Protein target, amino acids: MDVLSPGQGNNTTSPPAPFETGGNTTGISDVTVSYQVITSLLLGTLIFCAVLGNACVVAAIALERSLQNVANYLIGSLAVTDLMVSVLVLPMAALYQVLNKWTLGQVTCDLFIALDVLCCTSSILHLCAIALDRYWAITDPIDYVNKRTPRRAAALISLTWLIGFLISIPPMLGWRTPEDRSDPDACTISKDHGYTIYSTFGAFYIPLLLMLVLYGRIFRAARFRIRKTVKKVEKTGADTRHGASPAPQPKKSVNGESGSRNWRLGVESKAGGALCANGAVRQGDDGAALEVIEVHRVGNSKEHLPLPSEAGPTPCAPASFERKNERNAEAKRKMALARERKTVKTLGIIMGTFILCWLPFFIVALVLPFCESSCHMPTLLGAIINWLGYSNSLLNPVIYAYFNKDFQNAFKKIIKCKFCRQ
pKi: −log10 of the molar value.
Outcome measure: pKi

> print(dat)
                              sample.smiles  outcome.measure  value
1  O=C1CCOc2ccc(CCN3CCC(Cc4ccc(Br)c(OCCO)c4)CC3)cc21              pKi   8.07
2  COCCOc1cc(Br)cc(CC2CCN(CCc3ccc4c(c3)C(=O)CC4)CC2)c1              pKi   7.46
3  O=C1CCCOc2ccc(CCN3CCC(Cc4ccc(Br)c(OCCO)c4)CC3)cc21              pKi   7.26

a = COCCOc1cc(Cl)cc(CC2CCN(CCc3ccc4c(c3)C(=O)CCO4)CC2)c1
b = COCCOc1cc(Br)cc(CC2CCN(CCc3ccc4c(c3)C(=O)CCCO4)CC2)c1
c = O=C1CCc2ccc(CCN3CCC(Cc4ccc(Br)c(OCCO)c4)CC3)cc21
d = COCCOc1cc(CC2CCN(CCc3ccc4c(c3)C(=O)CCC4)CC2)ccc1C
Order these by pKi, descending, and give the full ranking. # answer = labels listed in requested order
c, d, a, b
(c: 8.42, d: 7.89, a: 7.24, b: 6.53)

###

# Target desc: CYP2D6 (Homo sapiens, UniProt P10635)
# Construct: Pooled of Human Liver Microsomes was purchased from Xenotech, LLC; tissue Xenotech, LLC; host or cells: pooled human liver microsomes
# Protocol notes: Screening test of the rate of CYP2D6 contribution in human liver microsomal metabolism
# Assay type: in vitro ADME
# Conditions: 1 mg/mL human liver microsomes, 1 μM test substance, with/without quinidine 4 μM, 37° C.
Outcome measure: Test Example 4: Rate of CYP2D6 Contribution (%)

The cases that follow already have their Test Example 4: Rate of CYP2D6 Contribution on record.
> print(dat)
                                   molecule  value
1  COCCOc1cc(Cl)cc(CC2CCN(CCc3ccc4c(c3)C(=O)CCO4)CC2)c1 [Example 20]     24
2  O=C1CCCc2ccc(CCN3CCC(Cc4ccc(Br)c(OCCO)c4)CC3)cc21 [Example 12]     17

A = COCCOc1cc(Br)cc(CC2CCN(CCc3ccc4c(c3)C(=O)CCO4)CC2)c1 [Example 17]
B = COCCOc1cc(CC2CCN(CCc3ccc4c(c3)C(=O)CCO4)CC2)ccc1Br.Cl [Example 4]
Parameter check: reported Test Example 4: Rate of CYP2D6 Contribution is higher for which label, A or B ? Lab log: write the label of the selected item as the result.
A
(A: 14%, B: 0%)

A = COCCOc1cc(Br)cc(CC2CCN(CCc3ccc4c(c3)C(=O)CCCO4)CC2)c1 [Example 18]
B = COCCOc1cc(CC2CCN(CCc3ccc4c(c3)C(=O)CCC4)CC2)ccc1C [Example 9]
Parameter check: reported Test Example 4: Rate of CYP2D6 Contribution is higher for which label, A or B ? Lab log: write the label of the selected item as the result.
B

P = COCCOc1cc(CC2CCN(CCc3ccc4c(c3)C(=O)CC4)CC2)ccc1Br [Example 1]
Q = COCCOc1cc(Br)cc(CC2CCN(CCc3ccc4c(c3)C(=O)CC4)CC2)c1 [Example 15]
Parameter check: reported Test Example 4: Rate of CYP2D6 Contribution is higher for which label, P or Q ? Lab log: write the label of the selected item as the result.
P
